B1: OR4K15 (parent)
chain: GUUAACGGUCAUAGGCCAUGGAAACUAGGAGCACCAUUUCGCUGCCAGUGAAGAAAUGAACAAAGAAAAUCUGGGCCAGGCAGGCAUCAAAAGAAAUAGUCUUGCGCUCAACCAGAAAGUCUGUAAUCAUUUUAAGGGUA

Variants of: B1
Experiment: self-cleavage, relative activity (ratio to wild type); higher = more cleavage; in vitro, sequencing; the parent is a self-cleaving ribozyme
Entries and their self-cleavage values follow.
Keep the answer to the number alone.

Would you please look over these solved cases?
GUUAACGGUCAUGGGCCAUGGAAACUAGGAGCACCAUUUCUCUGCCAGUGAAGAAAUGAACAAAGAAAAUCUGGGCCAGGCAGGCAUCAAAAGAAAUAGUCUUGCGCUCAACCAGAAAGUCUGUAAUCAUUUUAAGGGUA [A13G G41U] ... 1.28
GUUAACGGUCAUAGGCCAUGGAAACUAGGAGCACCAUUUCGCUGCCAGUGAAGAAAUGAACAAAGAAAAUCAGGGCCAGGCAGGCAUCAGAAGAAAUAGUCUUGCGCUCAACCAGAAAGUCUGUAAUCAUUUUAAGGGUA [U72A A90G] ... 0.18
GUUAACGGUCAUAGGCCAUGGAAACUAGGAGCACCAUUUCACUGCCAGUGAAGAAAUGAACAAAGAAAAUCUGGGCCAGGCAGGCAUCAAAAGAAAUAGUCUUGCGCUCAACCAGAAAGUCUGUAGUCAUUUUAAGGGUA [G41A A126G] ... 1.48

For reference, reported self-cleavage for GUUAACGGUCAUAGGCCAUGGAACCUAGGAGCACCAUUUCGCUGCCAGUGUAGAAAUGAACAAAGAAAAUCUGGGCCAGGCAGGCAUCAAAAGAAAUAGUCUUGCGCUCAACCAGAAAGUCUGUAAUCAUUUUAAGGGUA [A24C A51U] stands at 1.33

Data point: GUUAACGGUCAUAGGCCAUGGAAACUAGGAGCACCAUUACGCUGCCAGUGAAGAAAUGAACAAAGAUAAUCUGGGCCAGGCAGGCAUCAAAAGAAAUAGUCUUGCGCUCAACCAGAAAGUCUGUAAUCAUUUUAAGGGUA [U39A A67U] ; self-cleavage = 2.37

Value of measured self-cleavage for the entry GUUAACGGUCAUAGGCCAUGGAAACUAGGUGCACCAUUUCGCUGCCAGUGAAGAAAUGAACAAAGAAAAUCUGGGCCAGGCAGGCAUCAAAAAAAAUAGUCUUGCGCUCAACCAGAAAGUCUGUAAUCAUUUUAAGGGUA [A30U G93A] : 1.63
